- test.target: hCA II (Homo sapiens)
- protocol.description: CA inhibition, CO2 hydration method, isozyme II
- Assay type: biochemical
- measurement.context: Table 2; human cloned isozyme, CO2 hydration method
metric.name: Ki (nM)

Exam item: Give the measured Ki of NS(=O)(=O)c1ccc(NC(=O)Nc2ccc(-c3c4ccc(=O)cc-4oc4cc(O)ccc34)c(C(=O)O)c2)cc1 [compound 1, (4-Sulfamoylphenyl)ureido fluorescein] .
Marked response: 36

Exam item: Also, NS(=O)(=O)c1ccc(NC(=O)Nc2ccc(-c3c4ccc(=O)cc-4oc4cc(O)ccc34)c(C(=O)O)c2)c(F)c1 [compound 6] please.
Marked response: 40

A: NS(=O)(=O)c1ccc(CCNC(=O)Nc2ccc(-c3c4ccc(=O)cc-4oc4cc(O)ccc34)c(C(=O)O)c2)cc1 [compound 5]
B: NS(=O)(=O)c1ccc(CNS(=O)(=O)c2ccc(NC(=O)Nc3ccc(-c4c5ccc(=O)cc-5oc5cc(O)ccc45)c(C(=O)O)c3)cc2)cc1 [compound 10]
Exam item: Which has the higher Ki, A or B ? Select an item and report its label.
Marked response: A
(A: 35 nM, B: 14 nM)

----------
- test.target: UniProt:P00915
- Sequence (P00915 whole entry): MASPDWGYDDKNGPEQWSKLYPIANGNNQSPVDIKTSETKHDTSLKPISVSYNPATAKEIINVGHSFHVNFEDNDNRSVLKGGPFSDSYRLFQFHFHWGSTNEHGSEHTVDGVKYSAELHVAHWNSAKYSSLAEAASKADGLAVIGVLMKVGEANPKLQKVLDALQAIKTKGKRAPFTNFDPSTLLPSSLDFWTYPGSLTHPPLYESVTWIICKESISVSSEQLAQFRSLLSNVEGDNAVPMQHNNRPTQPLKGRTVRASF
- protocol.description: CA inhibition, CO2 hydration method, isozyme I
- Type: biochemical
- measurement.context: Table 1, human cloned isozyme, read-out: KI hCA I
metric.name: Ki (nM)

Exam item: Quick one: Ki of NS(=O)(=O)c1ccc(NC(=S)Nc2ccc(-c3c4ccc(=O)cc-4oc4cc(O)ccc34)c(C(=O)O)c2)cc1 [5a] ?
Marked response: 1500

a: NS(=O)(=O)c1ccc(NC(=S)Nc2ccc(-c3c4ccc(=O)cc-4oc4cc(O)ccc34)c(C(=O)O)c2)c(Br)c1 [5g]
b: NS(=O)(=O)c1ccc(CNS(=O)(=O)c2ccc(NC(=S)Nc3ccc(-c4c5ccc(=O)cc-5oc5cc(O)ccc45)c(C(=O)O)c3)cc2)cc1 [5j]
Exam item: Form: Entry with minimum Ki (choose one): a / b Refer to your chosen item by its label in the answer.
Marked response: b

----------
- test.target: hCA II (Homo sapiens, UniProt P00918)
- protocol.description: CA inhibition, CO2 hydration method, isozyme II
- Format: biochemical
- measurement.context: Table 1; human cloned isozyme, CO2 hydration method
metric.name: Ki (nM)

Exam item: Need Ki of NS(=O)(=O)c1ccc(NNC(=S)Nc2ccc(-c3c4ccc(=O)cc-4oc4cc(O)ccc34)c(C(=O)O)c2)cc1 , thanks.
Marked response: 40

Exam item: Same thing, different compound: NS(=O)(=O)c1ccc(NC(=S)Nc2ccc(-c3c4ccc(=O)cc-4oc4cc(O)ccc34)c(C(=O)O)c2)c(I)c1
Marked response: 40

1: NS(=O)(=O)c1nnc(NS(=O)(=O)c2ccc(NC(=S)Nc3ccc(-c4c5ccc(=O)cc-5oc5cc(O)ccc45)c(C(=O)O)c3)cc2)s1
2: NS(=O)(=O)c1cccc(NC(=S)Nc2ccc(-c3c4ccc(=O)cc-4oc4cc(O)ccc34)c(C(=O)O)c2)c1
Exam item: 1 or 2 : whose Ki is greater? Give the chosen item's label as your response.
Marked response: 2

----------
- test.target: hCA II (Homo sapiens, UniProt P00918)
- protocol.description: CA inhibition, CO2 hydration method, isozyme II
- Format: biochemical
- measurement.context: Table 2; human cloned isozyme, CO2 hydration method
metric.name: Ki (nM)

Exam item: Look up Ki with hCA II (Homo sapiens, UniProt P00918) for this compound: NS(=O)(=O)c1ccc(CNC(=O)Nc2ccc(-c3c4ccc(=O)cc-4oc4cc(O)ccc34)c(C(=O)O)c2)cc1
Marked response: 40

1: NS(=O)(=O)c1cccc(NC(=O)Nc2ccc(-c3c4ccc(=O)cc-4oc4cc(O)ccc34)c(C(=O)O)c2)c1
2: NS(=O)(=O)c1ccccc1NC(=O)Nc1ccc(-c2c3ccc(=O)cc-3oc3cc(O)ccc23)c(C(=O)O)c1
Exam item: Would you mind telling me which has the lower recorded Ki between 1 and 2 ? Mark your selection by writing its label.
Marked response: 1
(1: 43 nM, 2: 76 nM)

----------
- test.target: hCA II (Homo sapiens)
- protocol.description: CA inhibition, CO2 hydration method, isozyme II
- Format: biochemical
- measurement.context: Table 1; human cloned isozyme, CO2 hydration method
metric.name: Ki (µM)

Exam item: Which Ki reading was recorded for the compound NS(=O)(=O)c1ccc(NC(=S)Nc2ccc(-c3c4ccc(=O)cc-4oc4cc(O)ccc34)c(C(=O)O)c2)c(Br)c1 ?
Marked response: 0.043

Exam item: What do you have for NS(=O)(=O)c1ccc(CNS(=O)(=O)c2ccc(NC(=S)Nc3ccc(-c4c5ccc(=O)cc-5oc5cc(O)ccc45)c(C(=O)O)c3)cc2)cc1 ?
Marked response: 0.034

Exam item: Param item: NS(=O)(=O)c1ccc(NC(=S)Nc2ccc(-c3c4ccc(=O)cc-4oc4cc(O)ccc34)c(C(=O)O)c2)c(Cl)c1
Marked response: 0.052

Exam item: What do we get for NS(=O)(=O)c1ccc(NC(=S)Nc2ccc(-c3c4ccc(=O)cc-4oc4cc(O)ccc34)c(C(=O)O)c2)cc1 ?
Marked response: 0.041

----------
- test.target: UniProtKB Q16790
- protocol.description: CA inhibition, CO2 hydration method, isozyme IX (catalytic domain)
- Type: biochemical
- measurement.context: Table 1, catalytic domain of human cloned isozyme
metric.name: Ki (nM)

Take a look at these entries with their results.
Exam item: Which Ki is listed for NS(=O)(=O)c1ccc(NC(=S)Nc2ccc(-c3c4ccc(=O)cc-4oc4cc(O)ccc34)c(C(=O)O)c2)cc1 ?
Marked response: 29

Exam item: Moving on to the next molecule: NS(=O)(=O)c1ccc(NC(=S)Nc2ccc(-c3c4ccc(=O)cc-4oc4cc(O)ccc34)c(C(=O)O)c2)c(F)c1
Marked response: 30

Exam item: What do you get for NS(=O)(=O)c1ccc(CNS(=O)(=O)c2ccc(NC(=S)Nc3ccc(-c4c5ccc(=O)cc-5oc5cc(O)ccc45)c(C(=O)O)c3)cc2)cc1 ?
Marked response: 20

1: NS(=O)(=O)c1nnc(NS(=O)(=O)c2ccc(NC(=S)Nc3ccc(-c4c5ccc(=O)cc-5oc5cc(O)ccc45)c(C(=O)O)c3)cc2)s1
2: NS(=O)(=O)c1ccc(NC(=S)Nc2ccc(-c3c4ccc(=O)cc-4oc4cc(O)ccc34)c(C(=O)O)c2)c(Cl)c1
Exam item: Hey, between 1 and 2 which has a smaller measured Ki? # answer = label of selected item
Marked response: 1

----------
- test.target: hCA IX (Homo sapiens, UniProt Q16790)
- protocol.description: CA inhibition, CO2 hydration method, isozyme IX (catalytic domain)
- Type: biochemical
- measurement.context: Table 2, catalytic domain of human cloned isozyme
metric.name: Ki (nM)

Please review the following examples before continuing.
Exam item: Query Ki on hCA IX (Homo sapiens, UniProt Q16790) for NS(=O)(=O)c1ccccc1NC(=O)Nc1ccc(-c2c3ccc(=O)cc-3oc3cc(O)ccc23)c(C(=O)O)c1 [compound 3, (2-Sulfamoylphenyl)ureido fluorescein]
Marked response: 46

Exam item: Query NS(=O)(=O)c1nnc(NS(=O)(=O)c2ccc(NC(=O)Nc3ccc(-c4c5ccc(=O)cc-5oc5cc(O)ccc45)c(C(=O)O)c3)cc2)s1 [compound 11] next
Marked response: 6

Exam item: Can you handle NS(=O)(=O)c1ccc(NC(=O)Nc2ccc(-c3c4ccc(=O)cc-4oc4cc(O)ccc34)c(C(=O)O)c2)cc1 [compound 1, (4-Sulfamoylphenyl)ureido fluorescein] next?
Marked response: 21

Exam item: // query: NS(=O)(=O)c1ccc(NC(=O)Nc2ccc(-c3c4ccc(=O)cc-4oc4cc(O)ccc34)c(C(=O)O)c2)c(I)c1 [compound 9]
Marked response: 21

Exam item: NS(=O)(=O)c1ccc(NC(=O)Nc2ccc(-c3c4ccc(=O)cc-4oc4cc(O)ccc34)c(C(=O)O)c2)c(F)c1 [compound 6] ?
Marked response: 21

Exam item: // same read-out, input: NS(=O)(=O)c1ccc(NC(=O)Nc2ccc(-c3c4ccc(=O)cc-4oc4cc(O)ccc34)c(C(=O)O)c2)c(Cl)c1 [compound 7]
Marked response: 22

I: NS(=O)(=O)c1ccc(CNC(=O)Nc2ccc(-c3c4ccc(=O)cc-4oc4cc(O)ccc34)c(C(=O)O)c2)cc1 [compound 4]
II: NS(=O)(=O)c1cccc(NC(=O)Nc2ccc(-c3c4ccc(=O)cc-4oc4cc(O)ccc34)c(C(=O)O)c2)c1 [compound 2, (3-Sulfamoylphenyl)ureido fluorescein]
III: NS(=O)(=O)c1ccc(CNS(=O)(=O)c2ccc(NC(=O)Nc3ccc(-c4c5ccc(=O)cc-5oc5cc(O)ccc45)c(C(=O)O)c3)cc2)cc1 [compound 10]
Exam item: Order the records so the highest Ki appears first and the lowest last. Would you mind listing the labels in the order requested?
Marked response: II, I, III

----------
- test.target: UniProt:O43570
- Sequence (O43570 30-289 limits assumed): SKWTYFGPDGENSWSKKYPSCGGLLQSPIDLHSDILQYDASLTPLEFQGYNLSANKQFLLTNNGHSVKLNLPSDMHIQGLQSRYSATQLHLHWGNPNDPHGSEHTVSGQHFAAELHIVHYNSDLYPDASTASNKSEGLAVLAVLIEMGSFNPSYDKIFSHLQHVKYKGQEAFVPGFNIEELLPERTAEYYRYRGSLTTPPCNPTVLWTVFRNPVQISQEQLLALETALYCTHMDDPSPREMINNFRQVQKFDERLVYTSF
metric.name: Ki (nM)

Solved cases below.
Exam item: Record request: Ki value, item NS(=O)(=O)c1ccc(NC(=O)Nc2ccc(-c3c4ccc(=O)cc-4oc4cc(O)ccc34)c(C(=O)O)c2)c(Cl)c1
Marked response: 12

Exam item: Okay, and NS(=O)(=O)c1ccc(NC(=O)Nc2ccc(-c3c4ccc(=O)cc-4oc4cc(O)ccc34)c(C(=O)O)c2)cc1 ?
Marked response: 11

Exam item: What do you have for NS(=O)(=O)c1ccc(CCNC(=O)Nc2ccc(-c3c4ccc(=O)cc-4oc4cc(O)ccc34)c(C(=O)O)c2)cc1 ?
Marked response: 7

1: NS(=O)(=O)c1nnc(NS(=O)(=O)c2ccc(NC(=O)Nc3ccc(-c4c5ccc(=O)cc-5oc5cc(O)ccc45)c(C(=O)O)c3)cc2)s1
2: NS(=O)(=O)c1cccc(NC(=O)Nc2ccc(-c3c4ccc(=O)cc-4oc4cc(O)ccc34)c(C(=O)O)c2)c1
Exam item: Hi! Which is lower in terms of Ki, the first one 1 or the second one 2 ? The response must carry the label of the picked entry.
Marked response: 1

A: NS(=O)(=O)c1ccc(NC(=O)Nc2ccc(-c3c4ccc(=O)cc-4oc4cc(O)ccc34)c(C(=O)O)c2)c(I)c1
B: NS(=O)(=O)c1ccccc1NC(=O)Nc1ccc(-c2c3ccc(=O)cc-3oc3cc(O)ccc23)c(C(=O)O)c1
Exam item: So which one has the bigger Ki here, A or B ? Label of pick, please.
Marked response: B
(B: 18 nM, A: 7 nM)

The measurements presented in this section are drawn from patent US20080138291A1.
